- Tested on: Pseudotyped HCV GT1b particles (HCVpp), entry into Huh7-high CD81 cells
- experiment: microbe, parasite or virus in culture
- Format: cell-based, HCV GT1b Con1 strain
- conditions: Hepatitis C virus, GT1B, 72 h, read-out: HCVpp GT-1b (EC50, μM)
metric: log10 of EC50 (log10 of the value in µM)

[
  {
    "compound": "Nc1nc(Nc2cc(Cl)c(-c3ccc(OC4CCNCC4)cc3)c(Cl)c2)n[nH]1 [Compound 262]",
    "system_name": "Pseudotyped HCV GT1b particles (HCVpp), entry into Huh7-high CD81 cells",
    "log10 of EC50": -1.30
  },
  {
    "compound": "Nc1nc(Nc2cc(Cl)c(-c3ccc(S(=O)(=O)N[C@H]4C[C@H](O)C4)cc3)c(C(F)(F)F)c2)n[nH]1 [Compound 173]",
    "system_name": "Pseudotyped HCV GT1b particles (HCVpp), entry into Huh7-high CD81 cells",
    "log10 of EC50": -1.72
  },
  {
    "compound": "CN(CCOc1ccc(-c2c(Cl)cc(Nc3n[nH]c(N)n3)cc2C(F)(F)F)cc1)C(=O)OC(C)(C)C [Compound 125]",
    "system_name": "Pseudotyped HCV GT1b particles (HCVpp), entry into Huh7-high CD81 cells",
    "log10 of EC50": -1.02
  },
  {
    "compound": "Nc1nc(Nc2cc(Cl)c(-c3cccc(S(N)(=O)=O)c3)c(C(F)(F)F)c2)n[nH]1 [Compound 197, 2,2,2-trifluoroacetate]",
    "system_name": "Pseudotyped HCV GT1b particles (HCVpp), entry into Huh7-high CD81 cells",
    "log10 of EC50": -0.60
  },
  {
    "compound": "Nc1nc(Nc2cc(Cl)c(-c3ccc(NC(=O)CN4CCS(=O)(=O)CC4)cc3)c(C(F)(F)F)c2)n[nH]1 [Compound 240]",
    "system_name": "Pseudotyped HCV GT1b particles (HCVpp), entry into Huh7-high CD81 cells",
    "log10 of EC50": -0.77
  },
  {
    "compound": "Nc1nc(Nc2cc(Cl)c(-c3ccc([N+](=O)[O-])cc3)c(Cl)c2)n[nH]1 [Compound 83]",
    "system_name": "Pseudotyped HCV GT1b particles (HCVpp), entry into Huh7-high CD81 cells",
    "log10 of EC50": -0.27
  },
  {
    "compound": "Nc1nc(Nc2ccc(-c3ccccc3Cl)c(Cl)c2)n[nH]1 [Compound 155]",
    "system_name": "Pseudotyped HCV GT1b particles (HCVpp), entry into Huh7-high CD81 cells",
    "log10 of EC50": 0.22
  }
]
